The values you see were collected from paper PMC9002841.

Target or system: CDK6/Cyclin D3 (Homo sapiens, UniProt Q00534)
Sequence (Q00534 whole entry): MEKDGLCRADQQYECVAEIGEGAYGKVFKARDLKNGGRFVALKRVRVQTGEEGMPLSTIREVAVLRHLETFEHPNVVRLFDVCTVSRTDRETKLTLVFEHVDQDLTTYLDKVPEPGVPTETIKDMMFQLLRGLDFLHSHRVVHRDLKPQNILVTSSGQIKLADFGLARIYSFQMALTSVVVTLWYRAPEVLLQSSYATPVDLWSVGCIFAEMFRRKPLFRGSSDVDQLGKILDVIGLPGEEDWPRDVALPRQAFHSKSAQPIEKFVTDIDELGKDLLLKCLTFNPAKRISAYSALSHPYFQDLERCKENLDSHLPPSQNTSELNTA
Sequence (P30281 whole entry partner): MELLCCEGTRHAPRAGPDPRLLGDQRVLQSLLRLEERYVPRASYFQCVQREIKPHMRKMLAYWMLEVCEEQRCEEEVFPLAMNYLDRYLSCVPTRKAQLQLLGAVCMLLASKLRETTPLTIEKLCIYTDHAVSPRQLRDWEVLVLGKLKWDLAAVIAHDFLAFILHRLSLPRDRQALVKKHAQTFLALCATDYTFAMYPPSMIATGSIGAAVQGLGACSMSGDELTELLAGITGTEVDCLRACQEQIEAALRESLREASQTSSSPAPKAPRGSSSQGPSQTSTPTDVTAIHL
Protocol: In vitro CDK-6 inhibitory activity (ADP-Glo kinase assay)
Settings: mean ± SD
Quantity measured: IC50 (nM)
Your answer should be a plain number; it is taken to be in nM.

### Prompt Provide only the value of recorded IC50 for O=c1c(OC2OCC(O)C(O)C2O)c(-c2ccc(O)c(O)c2)oc2cc(O)cc(O)c12 (stereo not drawn) [Compound 10, quercetin 3-O-β-xyloside]
### Response 355
